Biological target: TYK2 (Homo sapiens, UniProt P29597)
Sequence (P29597 whole entry): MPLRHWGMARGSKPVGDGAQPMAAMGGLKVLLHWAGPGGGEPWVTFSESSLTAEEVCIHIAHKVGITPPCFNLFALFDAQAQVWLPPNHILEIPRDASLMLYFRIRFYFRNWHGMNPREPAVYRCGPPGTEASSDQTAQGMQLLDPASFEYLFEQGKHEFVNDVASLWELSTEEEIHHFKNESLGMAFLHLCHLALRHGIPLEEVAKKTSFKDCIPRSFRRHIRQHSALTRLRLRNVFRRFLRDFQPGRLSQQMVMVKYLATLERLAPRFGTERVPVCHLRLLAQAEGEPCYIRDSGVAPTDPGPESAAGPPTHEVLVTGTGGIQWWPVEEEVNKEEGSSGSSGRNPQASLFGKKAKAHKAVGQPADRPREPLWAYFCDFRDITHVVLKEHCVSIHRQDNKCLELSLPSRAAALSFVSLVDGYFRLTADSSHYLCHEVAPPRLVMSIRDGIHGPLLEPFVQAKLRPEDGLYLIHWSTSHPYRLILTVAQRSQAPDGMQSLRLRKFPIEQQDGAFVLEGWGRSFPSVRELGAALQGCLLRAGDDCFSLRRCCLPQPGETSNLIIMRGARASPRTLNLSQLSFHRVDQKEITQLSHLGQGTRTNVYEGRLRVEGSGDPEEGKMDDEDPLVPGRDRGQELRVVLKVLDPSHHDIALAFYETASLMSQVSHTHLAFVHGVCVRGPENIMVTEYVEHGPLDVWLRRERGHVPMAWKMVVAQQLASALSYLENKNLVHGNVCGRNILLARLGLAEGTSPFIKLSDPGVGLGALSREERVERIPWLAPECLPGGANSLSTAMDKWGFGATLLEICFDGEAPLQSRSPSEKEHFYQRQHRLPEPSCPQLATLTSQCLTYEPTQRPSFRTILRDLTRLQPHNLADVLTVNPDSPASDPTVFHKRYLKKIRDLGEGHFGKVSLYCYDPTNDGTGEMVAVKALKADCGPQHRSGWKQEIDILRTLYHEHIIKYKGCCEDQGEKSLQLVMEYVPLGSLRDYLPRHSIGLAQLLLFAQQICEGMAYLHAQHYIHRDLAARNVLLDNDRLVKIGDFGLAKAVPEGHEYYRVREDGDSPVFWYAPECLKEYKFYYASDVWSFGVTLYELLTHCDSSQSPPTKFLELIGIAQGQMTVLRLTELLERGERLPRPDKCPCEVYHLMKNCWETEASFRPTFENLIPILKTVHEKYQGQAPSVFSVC
Assay: TYK2 degradation MSD assay in human PBMC cells
Type: cell-based
Design: endogenous in cells; host or cells: human PBMC
Conditions: 4 to 24 hours incubation, read-out: TYK2 MSD DC50 rating in human PBMC
A collection of compounds and their measured DC50

Check out these entries, answers already filled in.
{"compound": "Cn1c(=O)n(C2CCC(=O)NC2=O)c2ccc(C3CN(C4CCN(Cc5ccc(-c6cccc(Nc7ccc8ncc(C(=O)NC9CC9)n8n7)c6)nc5)CC4)C3)cc21 (stereo not drawn)", "target desc": "TYK2 (Homo sapiens, UniProt P29597)", "DC50": "> 100 nM"}
{"compound": "Cn1c(=O)n(C2CCC(=O)NC2=O)c2ccc(CN3CCC(Nc4cc(Nc5cccn(-c6ccccn6)c5=O)nn5c(C(=O)N[C@@H]6C[C@@H]6F)cnc45)CC3)cc21 (stereo partly drawn)", "target desc": "TYK2 (Homo sapiens, UniProt P29597)", "DC50": "> 100 nM"}

(Q) // query DC50 value for entry CNC(=O)c1cnc(NC(=O)NCCCCc2cccc3c2n(C)c(=O)n3C2CCC(=O)NC2=O)cc1Nc1cccc(-c2ncc(F)cn2)c1OC (stereo not drawn)
(A) > 100 nM

---

A collection of compounds and their measured DC50
Target: TYK2 (Homo sapiens, UniProt P29597)
Test: TYK2 degradation MSD assay in OCI-LY10 cells
Format: cell-based
Parameters: endogenous in cells; host or cells: EBV-B cells
Conditions: 4 to 24 hours incubation, read-out: TYK2 MSD DC50 rating in OCI-LY10

(Q) // query DC50 value for entry CCNC(=O)c1cnc(Nc2ccc(C(=O)NCCCCc3cccc4c3n(C)c(=O)n4C3CCC(=O)NC3=O)cn2)cc1Nc1cccc(-c2ncc(F)cn2)c1OC (stereo not shown) [Example K182]
(A) > 100 nM

(Q) // query DC50 value for entry CNc1cc(Nc2cccn(-c3cccc(C(=O)NCCOCCOCCc4cccc5c4n(C)c(=O)n5C4CCC(=O)NC4=O)c3)c2=O)nn2c(C(=O)N[C@@H]3C[C@@H]3F)cnc12 (stereo partly shown) [Example K236]
(A) > 100 nM

(Q) // query DC50 value for entry CNc1cc(Nc2cccc(-c3ccc(CN4CCN(c5ccc(-c6ccc7c(c6)n(C)c(=O)n7C6CCC(=O)NC6=O)cc5)CC4)cn3)c2OC)nn2c(C(=O)NC3CC3C)cnc12 (stereo not shown) [Example K542]
(A) 1 to 10 nM

(Q) // query DC50 value for entry CNc1cc(Nc2cccn(-c3ccc(C(=O)N4CCC(N5CC(N6CCN(c7ccc8c(c7)n(C)c(=O)n8C7CCC(=O)NC7=O)CC6)C5)CC4)cn3)c2=O)nn2c(C(=O)N[C@@H]3C[C@@H]3F)cnc12 (stereo partly shown) [Example K381]
(A) < 1 nM

(Q) // query DC50 value for entry Cc1cc(Nc2cccc(-c3ccc(CN4CCN(c5ccc(-c6ccc7c(c6)n(C)c(=O)n7C6CCC(=O)NC6=O)cc5)CC4)cn3)c2)nn2c(C(=O)N[C@@H]3C[C@@H]3F)cnc12 (stereo partly shown) [Example K502]
(A) 1 to 10 nM

(Q) // query DC50 value for entry CNC(=O)c1cnc(Nc2ccc(CN3CCCC(c4cccc5c4n(C)c(=O)n5C4CCC(=O)NC4=O)C3)cn2)cc1Nc1cccc(-c2ncc(F)cn2)c1OC (stereo not shown) [Example K156]
(A) > 100 nM

(Q) // query DC50 value for entry Cn1c(=O)n(C2CCC(=O)NC2=O)c2ccc(CCCCCCCCCCNc3cc(Nc4cccn(-c5ccccn5)c4=O)nn4c(C(=O)N[C@@H]5C[C@@H]5F)cnc34)cc21 (stereo partly shown) [Example K210]
(A) > 100 nM

(Q) // query DC50 value for entry CCNC(=O)c1cnc(Nc2cc(CN3CCN(c4ccc5c(c4)n(C)c(=O)n5C4CCC(=O)NC4=O)CC3)ccn2)cc1Nc1cccc(-c2ncc(F)cn2)c1OC (stereo not shown) [Example K709]
(A) > 100 nM

(Q) // query DC50 value for entry CNc1cc(Nc2cccc(-c3ccc(CN4CCN(c5ccc(-c6cccc7c6n(C)c(=O)n7C6CCC(=O)NC6=O)cc5)CC4)cn3)c2OC)nn2c(C(=O)N[C@@H]3C[C@@H]3F)cnc12 (stereo partly shown) [Example K488]
(A) 1 to 10 nM

(Q) // query DC50 value for entry CNC(=O)c1cnc(Nc2ccc(CN(C)C3CCN(Cc4cccc5c4n(C)c(=O)n5C4CCC(=O)NC4=O)CC3)cn2)cc1Nc1cccc(-c2ncc(F)cn2)c1OC (stereo not shown) [Example K137]
(A) > 100 nM

---

A collection of molecules and their measured DC50
Molecular target: UniProt:P29597
Test: TYK2 degradation MSD assay in human PBMC cells
Format: cell-based
Set-up: endogenous in cells; host or cells: human PBMC
Conditions: 4 to 24 hours incubation, read-out: TYK2 MSD DC50 rating in human PBMC

{"molecule": "CNc1cc(Nc2cccn(-c3cc(C(=O)NCCCCc4cccc5c4n(C)c(=O)n5C4CCC(=O)NC4=O)ccn3)c2=O)nn2c(C(=O)N[C@@H]3C[C@@H]3F)cnc12 (stereo partly drawn) [Example K228]", "DC50": "1 to 10 nM"}

(Q) // query DC50 value for entry CNc1cc(Nc2cccn(C3CCN(C(=O)COCCOCCc4ccc5c(c4)n(C)c(=O)n5C4CCC(=O)NC4=O)CC3)c2=O)nn2c(C(=O)N[C@@H]3C[C@@H]3F)cnc12 (stereo partly drawn) [Example K275]
(A) > 100 nM

(Q) // query DC50 value for entry CNc1cc(N2CCc3c(N4CCC(CN5CCN(c6ccc7c(c6)n(C)c(=O)n7C6CCC(=O)NC6=O)CC5)CC4)cccc32)nn2c(C(=O)N[C@@H]3C[C@@H]3F)cnc12 (stereo partly drawn) [Example K638]
(A) > 100 nM

(Q) // query DC50 value for entry CNc1cc(Nc2cccc(N3CCC(CN4CCC(C#Cc5cccc6c5n(C)c(=O)n6C5CCC(=O)NC5=O)CC4)CC3)c2)nn2c(C(=O)N[C@@H]3C[C@@H]3F)cnc12 (stereo partly drawn) [Example K465]
(A) > 100 nM

(Q) // query DC50 value for entry CNC(=O)c1cnc(NC(=O)NCCCCCCCc2ccc3c(c2)n(C)c(=O)n3C2CCC(=O)NC2=O)cc1Nc1cccc(-c2ncc(F)cn2)c1OC (stereo not drawn) [Example K188]
(A) < 1 nM

(Q) // query DC50 value for entry CNc1cc(Nc2cccn(-c3cccc(C(=O)NCCCCCCc4cccc5c4n(C)c(=O)n5C4CCC(=O)NC4=O)c3)c2=O)nn2c(C(=O)N[C@@H]3C[C@@H]3F)cnc12 (stereo partly drawn) [Example K222]
(A) 1 to 10 nM

(Q) // query DC50 value for entry CNc1cc(Nc2cccn(C3CCN(C(=O)NCCCCc4cccc5c4n(C)c(=O)n5C4CCC(=O)NC4=O)CC3)c2=O)nn2c(C(=O)N[C@@H]3C[C@@H]3F)cnc12 (stereo partly drawn) [Example K278]
(A) 1 to 10 nM

---

Biological target: TYK2 (Homo sapiens)
Test: TYK2 degradation MSD assay in EBV-B cells
Assay type: cell-based
Parameters: endogenous in cells; host or cells: EBV-B cells
Settings: 4 to 24 hours incubation, read-out: TYK2 MSD DC50 rating in EBV-B
measured endpoint: DC50

{"compound": "CNc1cc(Nc2cccn(-c3cccc(C(=O)NCCCCCCc4cccc5c4n(C)c(=O)n5C4CCC(=O)NC4=O)c3)c2=O)nn2c(C(=O)N[C@@H]3C[C@@H]3F)cnc12 (stereo partly shown) [Example K222]", "result": "> 100 nM"}

(Q) Any idea what DC50 came out for CNc1cc(Nc2cccc(CN3CCCC4(C3)CN(c3ncc(C#Cc5ccc6c(c5)n(C)c(=O)n6C5CCC(=O)NC5=O)cn3)C4)c2)nn2c(C(=O)NC3CC3)cnc12 (stereo not shown) [Example K608] on TYK2 (Homo sapiens)?
(A) > 100 nM

(Q) Any idea what DC50 came out for CNc1cc(Nc2cccc(C(=O)NCCCCc3cccc4c3n(C)c(=O)n4C3CCC(=O)NC3=O)c2)nn2c(C(=O)N[C@@H]3C[C@@H]3F)cnc12 (stereo partly shown) [Example K248] on TYK2 (Homo sapiens)?
(A) > 100 nM

(Q) Any idea what DC50 came out for Cn1c(=O)n(C2CCC(=O)NC2=O)c2ccc(C#CC3CCN(Cc4ccc(-c5cccc(Nc6ccc7ncc(C(=O)NC8CC8)n7n6)c5)nc4)CC3)cc21 (stereo not shown) [Example K404] on TYK2 (Homo sapiens)?
(A) > 100 nM

(Q) Any idea what DC50 came out for CNc1cc(Nc2cccn(C3CCN(C(=O)N(C)CC4CCN(Cc5cccc6c5n(C)c(=O)n6C5CCC(=O)NC5=O)CC4)CC3)c2=O)nn2c(C(=O)N[C@@H]3C[C@@H]3F)cnc12 (stereo partly shown) [Example K397] on TYK2 (Homo sapiens)?
(A) 1 to 10 nM

(Q) Any idea what DC50 came out for Cn1c(=O)n(C2CCC(=O)NC2=O)c2ccc(CCCCCCCCNc3cc(Nc4cccn(-c5ccccn5)c4=O)nn4c(C(=O)N[C@@H]5C[C@@H]5F)cnc34)cc21 (stereo partly shown) [Example K208] on TYK2 (Homo sapiens)?
(A) > 100 nM

(Q) Any idea what DC50 came out for CNc1cc(Nc2cccc(CN3CCC(CN(C)c4ccc5c(c4)n(C)c(=O)n5C4CCC(=O)NC4=O)CC3)c2)nn2c(C(=O)NC3CC3)cnc12 (stereo not shown) [Example K606] on TYK2 (Homo sapiens)?
(A) > 100 nM

(Q) Any idea what DC50 came out for CNC(=O)c1cnc(Nc2ccc(CN3CCC(c4cccc5c4n(C)c(=O)n5C4CCC(=O)NC4=O)CC3)cn2)cc1Nc1cccc(-c2ncc(F)cn2)c1OC (stereo not shown) [Example K167] on TYK2 (Homo sapiens)?
(A) < 1 nM

(Q) Any idea what DC50 came out for CNc1cc(Nc2cccn(-c3ccc(C(=O)N4CCC5(CCCN(CCc6ccc7c(c6)n(C)c(=O)n7C6CCC(=O)NC6=O)C5)C4)cn3)c2=O)nn2c(C(=O)N[C@@H]3C[C@@H]3F)cnc12 (stereo partly shown) [Example K426] on TYK2 (Homo sapiens)?
(A) > 100 nM

(Q) Any idea what DC50 came out for CNc1cc(-c2cn(C)c3c(C4CCN(CC5CCN(c6ccc(-c7ccc8c(c7)n(C)c(=O)n8C7CCC(=O)NC7=O)cc6)CC5)CC4)cccc23)nn2c(C(=O)N[C@@H]3C[C@@H]3F)cnc12 (mixture of isomers) [Example K540] on TYK2 (Homo sapiens)?
(A) > 100 nM
